- experimental.system: ROCK2 (human) (UniProt O75116)
- Sequence (O75116 whole entry, looked up): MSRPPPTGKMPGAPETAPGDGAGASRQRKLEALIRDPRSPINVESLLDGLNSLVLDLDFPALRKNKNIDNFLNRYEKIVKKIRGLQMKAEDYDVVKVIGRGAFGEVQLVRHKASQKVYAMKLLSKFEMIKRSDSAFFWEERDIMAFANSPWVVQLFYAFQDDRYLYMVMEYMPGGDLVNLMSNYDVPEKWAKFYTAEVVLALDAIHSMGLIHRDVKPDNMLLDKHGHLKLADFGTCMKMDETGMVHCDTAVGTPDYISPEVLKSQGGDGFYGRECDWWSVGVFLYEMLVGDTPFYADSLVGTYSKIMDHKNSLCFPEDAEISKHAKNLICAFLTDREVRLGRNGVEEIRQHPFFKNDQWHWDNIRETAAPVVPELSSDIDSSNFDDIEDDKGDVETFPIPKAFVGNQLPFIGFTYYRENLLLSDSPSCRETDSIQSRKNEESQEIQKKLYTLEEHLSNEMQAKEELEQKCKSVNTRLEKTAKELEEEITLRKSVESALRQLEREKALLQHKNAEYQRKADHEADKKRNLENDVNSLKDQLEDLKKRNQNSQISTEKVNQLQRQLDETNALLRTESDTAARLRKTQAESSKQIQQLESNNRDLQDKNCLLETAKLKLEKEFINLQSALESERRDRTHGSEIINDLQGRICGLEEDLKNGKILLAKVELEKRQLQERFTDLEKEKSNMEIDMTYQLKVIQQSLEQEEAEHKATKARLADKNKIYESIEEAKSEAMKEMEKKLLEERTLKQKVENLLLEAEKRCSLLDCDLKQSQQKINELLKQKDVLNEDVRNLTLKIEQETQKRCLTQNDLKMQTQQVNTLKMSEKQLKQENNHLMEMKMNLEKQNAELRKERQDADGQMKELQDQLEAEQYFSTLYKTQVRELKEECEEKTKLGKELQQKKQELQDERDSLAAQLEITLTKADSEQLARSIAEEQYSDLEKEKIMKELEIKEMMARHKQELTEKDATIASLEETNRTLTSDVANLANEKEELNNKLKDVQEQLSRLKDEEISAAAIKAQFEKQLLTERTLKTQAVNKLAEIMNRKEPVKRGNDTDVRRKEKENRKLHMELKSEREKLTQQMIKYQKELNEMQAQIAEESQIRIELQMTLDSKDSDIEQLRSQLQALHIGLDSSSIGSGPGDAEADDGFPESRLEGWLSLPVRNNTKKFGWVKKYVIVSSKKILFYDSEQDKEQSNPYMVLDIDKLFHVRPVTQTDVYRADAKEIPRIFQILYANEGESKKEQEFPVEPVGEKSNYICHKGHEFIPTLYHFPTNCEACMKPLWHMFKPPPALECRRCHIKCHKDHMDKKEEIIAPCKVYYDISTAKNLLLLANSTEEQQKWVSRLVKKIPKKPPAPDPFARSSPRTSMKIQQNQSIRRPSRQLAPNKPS
Give IC50 for every item shown.

Prompt: Quick one: IC50 of N[C@H](c1ccc(F)cc1)C1CCC(Oc2cc3cc[nH]c(=O)c3cc2Cl)CC1 (stereo partly specified) ?
Response: 0.1 to 1 µM

Prompt: For the compound shown here, COc1ccc(C(N)[C@H]2CC[C@H](Oc3cc4cc[nH]c(=O)c4cc3Cl)CC2)cc1 (stereo partly specified) , give the reported IC50.
Response: 0.01 to 0.1 µM

Prompt: Value lookup for IC50; key = CC[C@@H](N)[C@]1(c2ccccc2)CC[C@H](Oc2cc3cc[nH]c(=O)c3cc2Cl)CC1
Response: ≤ 0.01 µM

Prompt: I am curious: what IC50 value has been reported for CC[C@@H](N)[C@]1(c2ccccc2)CC[C@@H](Oc2cc3cc[nH]c(=O)c3cc2Cl)CC1 ?
Response: 0.01 to 0.1 µM

Prompt: Requested read-out: IC50. Entry: CCCC(C)(N)C1CCC(Oc2cc3cc[nH]c(=O)c3cc2Cl)CC1 (stereo unspecified)
Response: 0.01 to 0.1 µM

Prompt: Please look up its IC50: CC(N)(c1ccccc1)C1CCC(Oc2cc3cc[nH]c(=O)c3cc2Cl)CC1 (stereo unspecified)
Response: 0.01 to 0.1 µM

Prompt: Param item = CC[C@@H](N)[C@]1(c2ccc(F)cc2)CC[C@H](Oc2cc3cc[nH]c(=O)c3cc2Cl)CC1 ; retrieve measured IC50.
Response: ≤ 0.01 µM

Prompt: Given the compound CCC(N)[C@]1(c2cccc(Br)c2)CC[C@H](Oc2cc3cc[nH]c(=O)c3cc2Cl)CC1 (stereo partly specified) , what is its reported IC50?
Response: ≤ 0.01 µM

Prompt: Which IC50 reading was recorded for the compound N[C@@H](c1ccc(F)cc1)C1CCC(Oc2cc3cc[nH]c(=O)c3cc2Cl)CC1 (stereo partly specified) ?
Response: ≤ 0.01 µM

Prompt: Entry under review: COc1ccc(C(N)[C@H]2CC[C@@H](Oc3cc4cc[nH]c(=O)c4cc3Cl)CC2)cc1 (stereo partly specified) . Reported IC50?
Response: ≤ 0.01 µM

Prompt: Quick check: IC50 of CC[C@H](N)[C@]1(c2ccccc2)CC[C@H](Oc2cc3cc[nH]c(=O)c3cc2Cl)CC1 ?
Response: ≤ 0.01 µM

Source of measurements: the Kinase Knowledgebase extract (Sharma et al. 2016)
